- Test system: HSkMC
- RUN_DESCRIPTION: cytotoxicity call (relative viability < 0.9)
- CONDITION_DETAILS: 10 µM
Out of some 39,000 compounds screened, about 1,500 (3.8%) were called active. The entries come from a sample that favours actives as a whole.
// allowed return values: active, inactive

{"SMILES_ENTRY": "O=C(C[C@H]1C=C[C@@H](NC(=O)Cc2ccccn2)[C@@H](CO)O1)NCCCN1CCOCC1", "CLASS_LABEL": "inactive"}
{"SMILES_ENTRY": "COc1ccccc1S(=O)(=O)N(C)C[C@@H]1OCc2cnnn2CCCC(=O)N([C@@H](C)CO)C[C@H]1C", "CLASS_LABEL": "inactive"}
{"SMILES_ENTRY": "O=C(O[C@H]1[C@H](O)[C@@H](CO)O[C@H](c2c(O)cc(O)c(C(=O)c3ccc(O)cc3)c2O)[C@H]1OC(=O)c1cc(O)c(O)c(O)c1)c1cc(O)c(O)c(O)c1", "CLASS_LABEL": "inactive"}
{"SMILES_ENTRY": "c1cnc2c(SCc3nc4ccccc4s3)cccc2c1", "CLASS_LABEL": "active"}
{"SMILES_ENTRY": "C[C@@H]1CN([C@H](C)CO)C(=O)c2cc(NC(=O)c3ccncc3)ccc2O[C@H]1CN(C)S(=O)(=O)c1ccc(F)cc1", "CLASS_LABEL": "inactive"}

What was the test verdict on Cn1nc(Cn2ccnc2)c2c1CN(CCO)C2 ?
inactive

Same read-out for C[C@@H]1CN([C@H](C)CO)C(=O)c2cc(NS(=O)(=O)c3ccccc3)ccc2O[C@@H]1CN(C)S(=O)(=O)c1cccs1 ?
inactive

Further, for Cc1noc(C)c1NC(=O)N(C)C[C@H]1OCCCC[C@@H](C)Oc2ccc(NC(=O)C3CCCCC3)cc2C(=O)N([C@H](C)CO)C[C@@H]1C ?
inactive

Thanks! And COc1ccc2c(c1)C(=O)C(=O)N2 ?
inactive

====

- Tested on: HSkMC (human skeletal muscle cells)
- RUN_DESCRIPTION: cytotoxicity call (relative viability < 0.9)
- CONDITION_DETAILS: 10 µM
Among all 39,000 compounds or so, about 1,500 (3.8%) were called active. The entries come from a sample that favours actives as a whole.
Permitted responses: 1 (active), 0 (inactive)

Identify the outcome logged in this assay for the compound shown: C[C@H](CO)N1C[C@H](C)[C@H](CN(C)C(=O)Nc2ccc(C(F)(F)F)cc2)Oc2ccc(NC(=O)Nc3ccc(F)cc3)cc2C1=O
1

Please answer likewise for C[C@@H]1CN([C@H](C)CO)C(=O)c2cc(NC(=O)Nc3ccc(F)cc3)ccc2O[C@H]1CN(C)C(=O)Nc1ccc(C(F)(F)F)cc1
0

Please give the result for C[C@@H]1CN([C@@H](C)CO)C(=O)c2cccc(NC(=O)Nc3ccc(C(F)(F)F)cc3)c2O[C@@H]1CN(C)Cc1ccc(C(F)(F)F)cc1 too.
1

Another: C[C@H]1CN([C@@H](C)CO)C(=O)c2cc(NC(=O)Nc3ccc(F)cc3)ccc2O[C@H]1CN(C)C(=O)Nc1ccc(C(F)(F)F)cc1
0

Same question for C[C@H](CO)N1C[C@H](C)[C@@H](CN(C)C(=O)Nc2ccc(C(F)(F)F)cc2)Oc2ccc(NC(=O)Nc3ccc(F)cc3)cc2C1=O please.
0
